Where do these numbers come from? They come from ChEMBL document CHEMBL1146098.

target: Estrogen receptor (Homo sapiens)
Sequence (P03372 whole entry): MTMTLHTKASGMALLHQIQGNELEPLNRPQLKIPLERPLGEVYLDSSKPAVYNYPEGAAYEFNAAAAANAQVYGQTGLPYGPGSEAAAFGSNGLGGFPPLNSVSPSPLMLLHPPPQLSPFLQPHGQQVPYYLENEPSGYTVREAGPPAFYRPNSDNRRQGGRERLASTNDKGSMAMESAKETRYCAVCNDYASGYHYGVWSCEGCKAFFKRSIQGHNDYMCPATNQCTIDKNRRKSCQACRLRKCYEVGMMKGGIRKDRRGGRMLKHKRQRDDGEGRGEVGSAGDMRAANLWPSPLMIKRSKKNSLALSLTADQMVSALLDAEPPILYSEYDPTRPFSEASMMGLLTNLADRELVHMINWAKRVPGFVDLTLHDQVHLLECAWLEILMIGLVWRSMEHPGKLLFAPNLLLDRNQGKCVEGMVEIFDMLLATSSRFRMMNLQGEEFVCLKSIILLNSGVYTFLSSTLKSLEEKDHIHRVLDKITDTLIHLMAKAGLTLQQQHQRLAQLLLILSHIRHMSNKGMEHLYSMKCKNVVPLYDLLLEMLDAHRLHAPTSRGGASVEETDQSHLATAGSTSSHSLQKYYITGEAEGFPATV
Mark Y only when IC50 stays strictly below 30 µM. Values equal to the cut-off are N.

{"molecule": "O=c1c2c(O)cc(O)cc2ncn1-c1ccc(O)c(Cl)c1", "assigned_label": "N"}
{"molecule": "Cc1cc(O)ccc1-n1cnc2cc(O)cc(O)c2c1=O", "assigned_label": "Y"}
{"molecule": "O=c1[nH]c2cc(O)cc(O)c2c(=O)n1-c1ccc(O)cc1", "assigned_label": "N"}
{"molecule": "O=c1c2ccc(O)cc2nc(-c2ccc(O)cc2)n1-c1ccc(O)cc1", "assigned_label": "N"}
{"molecule": "C=C(C)c1cc(O)cc2ncn(-c3ccc(O)cc3)c(=O)c12", "assigned_label": "N"}
{"molecule": "CCCc1nc2cc(O)cc(O)c2c(=O)n1-c1ccc(O)cc1", "assigned_label": "Y"}
{"molecule": "COc1cc(O)c2c(=O)n(-c3ccc(O)cc3)cnc2c1", "assigned_label": "Y"}
{"molecule": "O=c1c2c(O)cc(O)cc2ncn1-c1ccc(O)cc1Cl", "assigned_label": "Y"}
{"molecule": "CCCCc1nc2cc(O)cc(O)c2c(=O)n1-c1ccc(O)cc1", "assigned_label": "Y"}
{"molecule": "Oc1ccc(-c2coc3cc(O)cc(O)c3c2=S)cc1 [THIOGENISTEIN]", "assigned_label": "N"}
{"molecule": "O=c1c2c(O)cc(O)cc2ncn1-c1ccc(O)cc1F", "assigned_label": "Y"}
